measured.target: rat brain N-type calcium channel subunits (α1B+α2δ+β1b cDNA subunits) (Rattus norvegicus, UniProt Q02294)
Construct: expressed in transfected cells; host or cells: HEK 293
Sequence (Q02294 whole entry): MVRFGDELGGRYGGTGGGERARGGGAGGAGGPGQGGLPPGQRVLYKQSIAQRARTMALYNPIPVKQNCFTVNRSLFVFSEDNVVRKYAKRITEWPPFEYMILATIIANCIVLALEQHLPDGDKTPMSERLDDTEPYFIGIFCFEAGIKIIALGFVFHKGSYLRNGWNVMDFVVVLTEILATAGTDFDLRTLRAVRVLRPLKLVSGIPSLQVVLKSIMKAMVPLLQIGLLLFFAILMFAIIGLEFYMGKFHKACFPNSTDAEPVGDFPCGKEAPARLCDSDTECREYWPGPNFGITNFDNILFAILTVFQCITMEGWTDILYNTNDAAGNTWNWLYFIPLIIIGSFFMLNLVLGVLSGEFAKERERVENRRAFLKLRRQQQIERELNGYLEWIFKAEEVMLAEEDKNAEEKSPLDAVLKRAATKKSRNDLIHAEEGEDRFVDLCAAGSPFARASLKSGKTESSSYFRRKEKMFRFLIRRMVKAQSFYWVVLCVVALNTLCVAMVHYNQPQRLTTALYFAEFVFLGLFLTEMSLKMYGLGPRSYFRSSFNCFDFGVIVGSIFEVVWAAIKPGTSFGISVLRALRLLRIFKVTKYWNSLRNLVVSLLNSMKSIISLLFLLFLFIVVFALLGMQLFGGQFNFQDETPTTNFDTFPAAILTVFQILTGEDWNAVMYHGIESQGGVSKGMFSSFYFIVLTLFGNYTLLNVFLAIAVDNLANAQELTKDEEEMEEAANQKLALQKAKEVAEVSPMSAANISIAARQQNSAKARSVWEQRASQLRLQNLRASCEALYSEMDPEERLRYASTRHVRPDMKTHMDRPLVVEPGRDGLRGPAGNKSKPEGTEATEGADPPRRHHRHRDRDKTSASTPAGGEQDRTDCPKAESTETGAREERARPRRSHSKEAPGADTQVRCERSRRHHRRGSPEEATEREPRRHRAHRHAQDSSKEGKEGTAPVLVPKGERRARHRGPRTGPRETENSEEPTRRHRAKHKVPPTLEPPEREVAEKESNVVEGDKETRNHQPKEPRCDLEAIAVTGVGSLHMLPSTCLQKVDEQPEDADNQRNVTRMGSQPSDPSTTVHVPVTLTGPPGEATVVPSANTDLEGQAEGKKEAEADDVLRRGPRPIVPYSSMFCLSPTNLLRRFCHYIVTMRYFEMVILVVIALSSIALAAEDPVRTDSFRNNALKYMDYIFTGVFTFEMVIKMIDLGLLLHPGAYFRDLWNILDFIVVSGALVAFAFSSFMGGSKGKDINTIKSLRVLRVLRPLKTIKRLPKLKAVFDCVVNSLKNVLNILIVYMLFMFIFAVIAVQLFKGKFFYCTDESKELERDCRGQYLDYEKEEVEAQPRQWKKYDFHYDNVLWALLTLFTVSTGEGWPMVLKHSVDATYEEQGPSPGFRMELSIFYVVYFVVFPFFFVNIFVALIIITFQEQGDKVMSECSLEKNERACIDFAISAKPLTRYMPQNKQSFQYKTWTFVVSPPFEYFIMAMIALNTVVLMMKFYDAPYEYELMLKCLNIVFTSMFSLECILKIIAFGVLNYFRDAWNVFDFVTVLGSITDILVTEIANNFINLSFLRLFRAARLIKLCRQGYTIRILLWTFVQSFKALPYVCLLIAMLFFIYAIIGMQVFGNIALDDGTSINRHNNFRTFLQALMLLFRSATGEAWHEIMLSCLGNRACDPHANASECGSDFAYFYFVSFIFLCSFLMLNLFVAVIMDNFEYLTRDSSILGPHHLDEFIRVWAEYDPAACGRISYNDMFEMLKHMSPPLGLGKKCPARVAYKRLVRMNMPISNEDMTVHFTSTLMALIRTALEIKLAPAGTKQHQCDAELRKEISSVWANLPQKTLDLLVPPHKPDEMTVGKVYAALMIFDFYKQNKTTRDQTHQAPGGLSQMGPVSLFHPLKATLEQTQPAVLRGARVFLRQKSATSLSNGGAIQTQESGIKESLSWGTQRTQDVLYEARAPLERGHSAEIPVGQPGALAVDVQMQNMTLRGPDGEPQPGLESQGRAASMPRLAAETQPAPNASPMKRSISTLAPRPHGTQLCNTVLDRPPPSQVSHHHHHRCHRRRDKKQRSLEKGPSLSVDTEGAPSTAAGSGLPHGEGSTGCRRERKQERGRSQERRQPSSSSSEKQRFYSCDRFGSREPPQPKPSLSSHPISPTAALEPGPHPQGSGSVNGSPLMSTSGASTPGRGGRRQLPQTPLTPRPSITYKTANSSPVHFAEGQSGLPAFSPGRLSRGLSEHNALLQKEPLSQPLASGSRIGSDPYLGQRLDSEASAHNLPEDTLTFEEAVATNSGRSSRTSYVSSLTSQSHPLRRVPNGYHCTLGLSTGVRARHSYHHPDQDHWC
Sequence (P54290 25-944 partner limits assumed): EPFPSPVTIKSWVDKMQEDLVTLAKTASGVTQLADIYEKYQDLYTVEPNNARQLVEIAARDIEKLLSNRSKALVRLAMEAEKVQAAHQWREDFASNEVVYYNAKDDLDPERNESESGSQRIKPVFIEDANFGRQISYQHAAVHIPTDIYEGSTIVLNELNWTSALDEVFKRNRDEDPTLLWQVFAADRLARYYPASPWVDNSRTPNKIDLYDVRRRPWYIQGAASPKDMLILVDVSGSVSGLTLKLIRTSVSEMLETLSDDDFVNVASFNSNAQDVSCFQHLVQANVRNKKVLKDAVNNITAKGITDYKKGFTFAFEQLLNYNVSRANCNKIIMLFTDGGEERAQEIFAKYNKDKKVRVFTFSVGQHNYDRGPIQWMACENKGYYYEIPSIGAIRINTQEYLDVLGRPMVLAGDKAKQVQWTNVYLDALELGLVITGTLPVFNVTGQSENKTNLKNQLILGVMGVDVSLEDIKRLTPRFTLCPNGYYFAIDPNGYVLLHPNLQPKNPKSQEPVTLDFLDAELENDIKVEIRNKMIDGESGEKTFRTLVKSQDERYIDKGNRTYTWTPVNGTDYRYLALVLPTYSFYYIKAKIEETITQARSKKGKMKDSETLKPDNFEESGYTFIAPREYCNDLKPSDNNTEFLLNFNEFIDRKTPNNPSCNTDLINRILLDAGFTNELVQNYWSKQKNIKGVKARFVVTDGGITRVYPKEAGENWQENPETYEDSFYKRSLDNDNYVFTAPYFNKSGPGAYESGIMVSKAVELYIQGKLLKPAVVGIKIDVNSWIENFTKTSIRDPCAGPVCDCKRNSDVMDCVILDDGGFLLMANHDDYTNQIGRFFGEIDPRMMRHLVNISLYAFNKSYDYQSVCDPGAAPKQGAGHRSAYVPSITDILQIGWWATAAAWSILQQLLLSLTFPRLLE
Sequence (P54290 945-1091 partner limits assumed): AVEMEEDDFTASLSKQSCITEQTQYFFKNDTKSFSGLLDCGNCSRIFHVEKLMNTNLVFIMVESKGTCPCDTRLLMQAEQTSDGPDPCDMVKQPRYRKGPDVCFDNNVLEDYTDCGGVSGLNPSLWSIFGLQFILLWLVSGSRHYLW
Sequence (P54283 whole entry partner): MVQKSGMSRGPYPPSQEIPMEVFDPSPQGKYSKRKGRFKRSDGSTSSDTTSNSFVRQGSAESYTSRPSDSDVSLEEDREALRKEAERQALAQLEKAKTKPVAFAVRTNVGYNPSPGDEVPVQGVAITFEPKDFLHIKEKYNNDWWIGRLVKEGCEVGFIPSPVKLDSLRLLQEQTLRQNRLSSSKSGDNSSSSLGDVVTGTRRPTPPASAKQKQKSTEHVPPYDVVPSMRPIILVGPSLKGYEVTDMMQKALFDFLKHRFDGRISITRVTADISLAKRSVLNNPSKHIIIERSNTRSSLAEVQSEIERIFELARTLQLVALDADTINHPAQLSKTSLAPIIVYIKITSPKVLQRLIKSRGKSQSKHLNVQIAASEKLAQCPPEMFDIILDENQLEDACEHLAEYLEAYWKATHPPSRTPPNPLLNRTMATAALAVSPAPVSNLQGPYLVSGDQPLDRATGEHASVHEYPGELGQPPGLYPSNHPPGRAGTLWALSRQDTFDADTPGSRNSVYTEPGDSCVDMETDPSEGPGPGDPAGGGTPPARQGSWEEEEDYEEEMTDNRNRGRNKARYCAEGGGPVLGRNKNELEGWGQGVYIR
method: N-type calcium channel block, whole cell patch clamp in transfected HEK 293 cells
Format: cell-based
test.settings: low frequency stimulation 0.067 Hz (tonic block), holding potential −80 mV to +10 mV, 5 mM BaCl2, read-out: IC50 @ 0.067 Hz
Description: N-type calcium channel blocking activity was assayed in human embryonic kidney cells, HEK 293, stably transfected with the rat brain N-type calcium channel subunits (α1B+α2δ+β1b cDNA subunits). […] Whole cell patch clamp experiments were performed using an Axopatch 200B amplifier (Axon Instruments, Burlingame, Calif.) linked to a personal computer equipped with pCLAMP software. […] Data were analyzed using Clampfit (Axon Instruments) and SigmaPlot 4.0 (Jandel Scientific).
pIC50: −log10 of the molar value.
observation.type: pIC50

Solved cases (2 shown):
Data point: COc1ccccc1C(CC(=O)N1CCC(C(=O)N2CCN(C(C)(C)C)CC2)CC1)c1ccccc1OC [Compound 87] ; pIC50 = 5.16

Entry under test: CC1CN(C(=O)C2CCN(C(=O)CNC(c3ccccc3)c3ccccc3)CC2)CC(C)N1 (centres unmarked) [Compound 20] . Its pIC50 was 5.06

a: O=C(CNC(c1ccccc1)c1ccccc1)N1CCC(CN2CCCCC2)CC1 [Compound 43]
b: Cc1ccccc1C(CC(=O)N1CCC(C(c2ccccc2)N2CCN(C(C)(C)C)CC2)CC1)c1ccccc1C (centres unmarked) [Compound 101]
[ask] Thinking about recorded pIC50 values, which is higher, a or b ? Please respond with the label that marks your chosen entry.
[reply] b
(b: 5.85, a: 5.27)

---

measured.target: rat brain N-type calcium channel subunits (α1B+α2δ+β1b cDNA subunits) (Rattus norvegicus)
Construct: expressed in transfected cells; host or cells: HEK 293
method: N-type calcium channel block, whole cell patch clamp in transfected HEK 293 cells
Assay type: cell-based
test.settings: pulse frequency 0.2 Hz (frequency dependent block), holding potential −80 mV to +10 mV, 5 mM BaCl2, read-out: IC50 @ 0.2 Hz
Experimental: N-type calcium channel blocking activity was assayed in human embryonic kidney cells, HEK 293, stably transfected with the rat brain N-type calcium channel subunits (α1B+α2δ+β1b cDNA subunits). […] Whole cell patch clamp experiments were performed using an Axopatch 200B amplifier (Axon Instruments, Burlingame, Calif.) linked to a personal computer equipped with pCLAMP software. […] Data were analyzed using Clampfit (Axon Instruments) and SigmaPlot 4.0 (Jandel Scientific).
pIC50: −log10 of the molar value.
observation.type: pIC50

Here's what some known entries look like.
Input CC1CN(CC2CCN(C(=O)C[S+]([O-])C(c3ccccc3)c3ccccc3)CC2)CC(C)N1 (centres unmarked) . Output pIC50: 5.62

// recorded pIC50 for Cc1ccccc1C(CC(=O)N1CCC(C(=O)N2CCN(C)CC2)(c2ccccc2)CC1)c1ccccc1C : 6.54

Entry under test: Cc1ccccc1C(CC(=O)N1CCC(CN2CC(C)NC(C)C2)(c2ccccc2)CC1)c1ccccc1C (centres unmarked) . Its pIC50 was 6.51

Consider CN1CCN(C(=O)C2(c3ccccc3)CCN(C(=O)NC(c3ccccc3)c3ccccc3)CC2)CC1 . Its measured pIC50 is 5.85

Looking up O=C(NC(c1ccccc1)c1ccccc1)N1CCC(CN2CCCCC2)CC1 , I see its pIC50 listed as 5.46

P: CC(C)(C)N1CCN(CC2CCN(C(=O)CC(c3ccccc3)c3ccccc3)CC2)CC1
Q: CC(C)(C)N1CCN(C(=O)C2CCN(C(=O)CC(c3ccc(F)cc3)c3ccc(F)cc3)CC2)CC1
[ask] Between item P and item Q , which reported pIC50 is smaller? Lab note: record the label of whichever item you select.
[reply] Q

---

measured.target: rat brain N-type calcium channel subunits (α1B+α2δ+β1b cDNA subunits) (Rattus norvegicus, UniProt Q02294)
Construct: expressed in transfected cells; host or cells: HEK 293
method: N-type calcium channel block, whole cell patch clamp in transfected HEK 293 cells
Format: cell-based
test.settings: pulse frequency 0.2 Hz (frequency dependent block), holding potential −80 mV to +10 mV, 5 mM BaCl2, read-out: IC50 @ 0.2 Hz
observation.type: IC50 (µM)

Value of measured IC50 for the entry O=C(C[S+]([O-])C(c1ccccc1)c1ccccc1)N1CCC(CN2CCCCC2)(c2ccccc2)CC1 (centres unmarked) : 0.93

A: Cc1ccccc1C(CC(=O)N1CCC(C(c2ccccc2)N2CC(C)NC(C)C2)CC1)c1ccccc1C (centres unmarked)
B: CN1CCN(C(=O)C2CCN(C(=O)CNC(c3ccccc3)c3ccccc3)CC2)CC1
[ask] Could you tell me which of these two has the smaller IC50 figure? First: A Second: B In your reply, give the label of the chosen option.
[reply] A
(A: 0.44 µM, B: 2.38 µM)

---

measured.target: rat brain N-type calcium channel subunits (α1B+α2δ+β1b cDNA subunits) (Rattus norvegicus, UniProt Q02294)
Construct: expressed in transfected cells; host or cells: HEK 293
method: N-type calcium channel block, whole cell patch clamp in transfected HEK 293 cells
Type: cell-based
test.settings: low frequency stimulation 0.067 Hz (tonic block), holding potential −80 mV to +10 mV, 5 mM BaCl2, read-out: IC50 @ 0.067 Hz
pIC50: −log10 of the molar value.
observation.type: pIC50

I: CC1CN(C(=O)C2CCN(C(=O)COC(c3ccccc3)c3ccccc3)CC2)CC(C)N1 (centres unmarked) [Compound 21]
II: O=C(COC(c1ccccc1)c1ccccc1)N1CCC(C(c2ccccc2)N2CCCCC2)CC1 (centres unmarked) [Compound 52]
III: CC(C)(C)N1CCN(C(=O)C2CCN(C(=O)NC(c3ccccc3)c3ccccc3)CC2)CC1 [Compound 80]
[ask] Can you order these entries from above by pIC50? Start with the largest number and work down. Return the labels ranked in the requested order, please.
[reply] II, I, III
(II: 6.20, I: 5.79, III: 4.93)

---

measured.target: rat brain N-type calcium channel subunits (α1B+α2δ+β1b cDNA subunits) (Rattus norvegicus)
Construct: expressed in transfected cells; host or cells: HEK 293
method: N-type calcium channel block, whole cell patch clamp in transfected HEK 293 cells
Assay type: cell-based
test.settings: low frequency stimulation 0.067 Hz (tonic block), holding potential −80 mV to +10 mV, 5 mM BaCl2, read-out: IC50 @ 0.067 Hz
pIC50: −log10 of the molar value.
observation.type: pIC50

Solved cases (4 shown):
Recorded result, CN1CCN(C(=O)C2CCN(C(=O)COC(c3ccccc3)c3ccccc3)CC2)CC1 , pIC50: 5.29

// field: pIC50; key: CC1CN(CC2CCN(C(=O)COC(c3ccccc3)c3ccccc3)CC2)CC(C)N1 (centres unmarked) ; value = 5.73

pIC50 reported for this molecule CC1CN(C(=O)C2(c3ccccc3)CCN(C(=O)CNC(c3ccccc3)c3ccccc3)CC2)CC(C)N1 (centres unmarked) : 5.56

Briefly, pIC50 measured for CN1CCN(CC2CCN(C(=O)C[S+]([O-])C(c3ccccc3)c3ccccc3)CC2)CC1 (centres unmarked) : 5.07

1: CC(C)(C)N1CCN(CC2CCN(C(=O)CC(c3ccccc3)c3ccccc3)CC2)CC1
2: O=C(NC(c1ccccc1)c1ccccc1)N1CCC(CN2CCCCC2)CC1
3: Cc1ccccc1C(CC(=O)N1CCC(CN2CCCCC2)(c2ccccc2)CC1)c1ccccc1C
[ask] Rank descending by pIC50. When ranking, write the labels in the order the request describes.
[reply] 3, 1, 2

---

measured.target: rat brain N-type calcium channel subunits (α1B+α2δ+β1b cDNA subunits) (Rattus norvegicus, UniProt Q02294)
Construct: expressed in transfected cells; host or cells: HEK 293
method: N-type calcium channel block, whole cell patch clamp in transfected HEK 293 cells
Assay type: cell-based
test.settings: low frequency stimulation 0.067 Hz (tonic block), holding potential −80 mV to +10 mV, 5 mM BaCl2, read-out: IC50 @ 0.067 Hz
pIC50: −log10 of the molar value.
Reported pIC50 values for the following compounds.

Consider the worked cases shown below.
The reported value for CN1CCN(CC2CCN(C(=O)COC(c3ccccc3)c3ccccc3)CC2)CC1 in terms of pIC50 is < 5.25

Record CN1CCN(C(=O)C2(c3ccccc3)CCN(C(=O)CNC(c3ccccc3)c3ccccc3)CC2)CC1 . Reported pIC50: < 4.67

Next compound, pIC50 to be filled in.
Given item CC1CN(CC2CCN(C(=O)CC(c3ccccc3)c3ccccc3)CC2)CC(C)N1 (stereo not drawn) , the value recorded as its pIC50 is < 5.33

---

measured.target: rat brain N-type calcium channel subunits (α1B+α2δ+β1b cDNA subunits) (Rattus norvegicus)
Construct: expressed in transfected cells; host or cells: HEK 293
method: N-type calcium channel block, whole cell patch clamp in transfected HEK 293 cells
Assay type: cell-based
test.settings: pulse frequency 0.2 Hz (frequency dependent block), holding potential −80 mV to +10 mV, 5 mM BaCl2, read-out: IC50 @ 0.2 Hz
observation.type: IC50 (nM)

The recorded IC50 with rat brain N-type calcium channel subunits (α1B+α2δ+β1b cDNA subunits) (Rattus norvegicus) for Cc1ccccc1C(CC(=O)N1CCC(C(c2ccccc2)N2CCN(C(C)(C)C)CC2)CC1)c1ccccc1C (stereo not drawn) was 800

Item: CN1CCN(C(=O)C2CCN(C(=O)COC(c3ccccc3)c3ccccc3)CC2)CC1 | System: rat brain N-type calcium channel subunits (α1B+α2δ+β1b cDNA subunits) (Rattus norvegicus) | IC50: 1730

P: CN1CCN(C(=O)C2CCN(C(=O)CC(c3ccccc3)c3ccccc3)CC2)CC1
Q: Cc1ccccc1C(CC(=O)N1CCC(C(=O)N2CCNCC2)CC1)c1ccccc1C
[ask] Field: lower recorded IC50 (choose P or Q ) # respond with the chosen item's label
[reply] P
(P: 750 nM, Q: 1880 nM)
